Data provenance is patent US20250002507A1.

# ASSAY_SYSTEM: Human M4 (Homo sapiens, UniProt P08173)
# Construct: expressed in transfected cells
# Sequence (P08173 1-479): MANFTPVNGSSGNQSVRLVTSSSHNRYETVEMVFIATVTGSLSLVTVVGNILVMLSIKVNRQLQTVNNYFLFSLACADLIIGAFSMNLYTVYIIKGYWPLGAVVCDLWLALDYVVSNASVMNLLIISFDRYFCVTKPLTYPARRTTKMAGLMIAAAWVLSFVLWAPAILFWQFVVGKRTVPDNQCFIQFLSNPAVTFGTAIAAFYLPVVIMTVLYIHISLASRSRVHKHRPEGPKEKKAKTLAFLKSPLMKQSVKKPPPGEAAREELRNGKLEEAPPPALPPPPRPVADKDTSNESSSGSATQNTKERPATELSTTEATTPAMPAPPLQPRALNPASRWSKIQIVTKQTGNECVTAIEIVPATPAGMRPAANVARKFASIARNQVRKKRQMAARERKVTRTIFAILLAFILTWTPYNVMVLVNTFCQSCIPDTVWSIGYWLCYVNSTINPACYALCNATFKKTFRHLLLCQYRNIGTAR
# ASSAY_INFO: mAChR M4 cell-based functional assay (calcium flux, potentiation of EC20 acetylcholine response), hM4-Gqi5 CHO-K1 cells
# STUDY_CONDITIONS: CHO-K1, read-out: Emax (% ACh maximum at 30 μM)
Documented Emax across a set of compounds
Write the number in % without appending the unit.

[[record]]
test_smiles = "Cc1c(N2CCc3ncc(N)cc3C2)nn2cnnc2c1C"
measured_parameter = "Emax"
result_number = 102

[[record]]
test_smiles = "COc1ncc(-c2cnc3c(c2)CN(c2nn4cnnc4c(C)c2C)CC3)cc1F"
measured_parameter = "Emax"
result_number = 89

[[record]]
test_smiles = "Cc1c(N2CCc3ncc(O)cc3C2)nn2cnnc2c1C"
measured_parameter = "Emax"
result_number = 81


Documented Emax of Cc1cc2c(nc1C)CCN(c1nn3cnnc3c(C)c1C)C2 : 106
